assay: Intrinsic clearance in human liver microsomes; type: ADME; details: read-out: CLH
# microsomal CLint >= 60 µL/min/mg gives 1.0, anything below gives 0.0

Request: Kindly determine if microsomal CLint recorded for `O=C(O[C@H]1C[N+]2(CCCc3ccncc3)CCC1CC2)C1(c2cccs2)CCCCCC1` is above or exactly 60 µL/min/mg.
Result: 0.0

Request: Okay, and `O=C(C[N+]12CCC(CC1)[C@@H](OC(=O)C1(C3=CC=CC3)CCCCCC1)C2)Nc1ncco1` ?
Result: 1.0

Request: Okay, and `Cc1ccc(CC[N+]23CCC(CC2)[C@@H](OC(=O)C2(C4=CC=CC4)CCCCCC2)C3)s1` ?
Result: 1.0

Request: Okay, and `O=C(O[C@H]1C[N+]2(Cc3cc(-c4ccccc4)on3)CCC1CC2)C1(C2=CC=CC2)CCCCCC1` ?
Result: 1.0

Request: Okay, and `Cc1cc(NC(=O)C[N+]23CCC(CC2)[C@@H](OC(=O)C2(C4=CC=CC4)CCCCCC2)C3)ncn1` ?
Result: 0.0

Request: Okay, and `O=C(C[N+]12CCC(CC1)[C@@H](OC(=O)C1(C3=CC=CC3)CCCCCC1)C2)Nc1cnccn1` ?
Result: 0.0

Request: Okay, and `O=C(C[N+]12CCC(CC1)[C@@H](OC(=O)C1(C3=CC=CC3)CCCCCC1)C2)Nc1cncc(Cl)n1` ?
Result: 0.0

Request: Okay, and `O=C(C[N+]12CCC(CC1)[C@@H](OC(=O)C1(C3=CC=CC3)CCCCCC1)C2)N1CCOCC1` ?
Result: 0.0

Request: Okay, and `O=C(O[C@H]1C[N+]2(Cc3nc4ccccc4o3)CCC1CC2)C1(C2=CC=CC2)CCCCCC1` ?
Result: 1.0

Request: Okay, and `Cc1cncc(NC(=O)C[N+]23CCC(CC2)[C@@H](OC(=O)C2(C4=CC=CC4)CCCCCC2)C3)n1` ?
Result: 0.0

Request: Okay, and `O=C(O[C@H]1C[N+]2(CCOc3ccccc3)CCC1CC2)C1(C2=CC=CC2)CCCCCC1` ?
Result: 1.0

Request: Okay, and `O=C(O[C@H]1C[N+]2(Cc3cc(-c4ccccc4)no3)CCC1CC2)C1(C2=CC=CC2)CCCCCC1` ?
Result: 1.0

Request: Okay, and `Cc1ccc(NC(=O)C[N+]23CCC(CC2)[C@@H](OC(=O)C2(C4=CC=CC4)CCCCCC2)C3)nc1` ?
Result: 0.0

Request: Okay, and `O=C(C[N+]12CCC(CC1)[C@@H](OC(=O)C1(C3=CC=CC3)CCCCCC1)C2)Nc1cccnc1` ?
Result: 0.0

Request: Okay, and `Cc1ccnc(NC(=O)C[N+]23CCC(CC2)[C@@H](OC(=O)C2(C4=CC=CC4)CCCCCC2)C3)c1` ?
Result: 0.0

Request: Okay, and `C[N+]1(C)CCC(OC(=O)C2(c3ccccc3)CCCCCC2)CC1` ?
Result: 0.0

Request: Okay, and `O=C(C[N+]12CCC(CC1)[C@@H](OC(=O)C1(C3=CC=CC3)CCCCCC1)C2)Nc1cccnn1` ?
Result: 1.0
